# Tested on: LOX IMVI
# experiment description: NCI tumour cell line growth inhibition, 48 h
Calls of active or inactive are those of the source. Rule as the data show it: active = GI50 up to about 1.1 µM and inactive = higher.
observed property: GI50

[
  {
    "compound": "CCOC(=O)c1c(C)n(CCN2CCN(C)CC2)c2ccc(OC)cc12",
    "result": "16.6 µM (inactive)"
  },
  {
    "compound": "CCOC(=O)C(SCCO)C(C(=O)OCC)n1cc(C)c(=O)[nH]c1=O (centres undefined)",
    "result": "6.84 µM (inactive)"
  },
  {
    "compound": "O=C1Sc2cc3ccccc3cc2C(=O)Sc2ccc(Br)cc21",
    "result": "1.76 µM (inactive)"
  },
  {
    "compound": "CNC(=S)NNc1ncnc2c1c(-c1ccc(Cl)cc1)cn2-c1ccc(C)cc1",
    "result": "9.38 µM (inactive)"
  },
  {
    "compound": "Cc1ccnc(NC(=S)Nc2ccc([N+](=O)[O-])cc2)c1",
    "result": "> 100 µM (inactive)"
  },
  {
    "compound": "COc1ccc(C2=Nc3c(nc(OC)[nH]c3=O)NC(c3ccccc3)C2)cc1 (centres undefined)",
    "result": "26.6 µM (inactive)"
  },
  {
    "compound": "S=C1NC2=C(COC/C2=C\\c2ccccc2Cl)C(c2ccccc2Cl)N1 (centres undefined)",
    "result": "21.2 µM (inactive)"
  },
  {
    "compound": "COC(=O)c1cc(-c2c[nH]cc2C(=O)OCc2ccccc2)cn1S(=O)(=O)c1ccc(C)cc1",
    "result": "22.4 µM (inactive)"
  },
  {
    "compound": "CN(COC(=O)c1ccccc1)c1nc(N(C)COC(=O)c2ccccc2)nc(N(C)COC(=O)c2ccccc2)n1",
    "result": "> 100 µM (inactive)"
  },
  {
    "compound": "Cc1cc(C)n(-c2nc3ccccc3c(=O)[nH]2)n1",
    "result": "1.41 µM (inactive)"
  }
]

Each of the following entries comes with a recorded value; kindly state GI50 for each.
1. CO[C@@H]1O[C@H](C(=O)c2ccccc2)[C@H]2OC(C)(C)O[C@@H]12
2. Nc1cc2c3c(c1)Oc1cc(N)cc4c1C3c1c(cc(N)cc1O4)O2
3. COC(=O)CCC(=O)c1ccc2c(c1)CC1(C2)Cc2ccc(C(=O)CCC(=O)OC)cc2C1

Output:
1. > 100 µM (inactive)
2. 17.9 µM (inactive)
3. > 100 µM (inactive)

---

# Tested on: SR
# experiment description: NCI tumour cell line growth inhibition, 48 h
Activity calls are given as the source filed them. Cut-off read from the data, not from the text of the source: active = GI50 up to about 1.1 µM and inactive = higher.
Assign a class; possible classes are True (active), False (inactive)

[
  {
    "compound": "OCCCN=C1CCCCC1",
    "category": "False"
  },
  {
    "compound": "CCCCOC(=O)NC(=O)c1cn(CCCOC(=O)NCCCCCCNC(=O)OCCCn2cc(C(=O)NC(=O)OCCCC)c(=O)[nH]c2=O)c(=O)[nH]c1=O",
    "category": "False"
  },
  {
    "compound": "Cc1noc(C)c1/N=N/c1ccc2nonc2c1N",
    "category": "False"
  },
  {
    "compound": "c1ccc2oc(-c3ccc(-c4nc5ccccc5o4)c4c3CC4)nc2c1",
    "category": "False"
  }
]

Input: Which outcome was entered for the compound CN1C(=O)C2CCC(=O)N2c2cccnc21 (stereo not drawn) in this test?
Output: False

Input: Outcome? CC(C)(C)OC(=O)NCCNC(=O)CN(CC(=O)O)C1CCCCC1N(CC(=O)O)CC(=O)O (stereo not drawn)
Output: False

Input: Record request — test call for Cc1nc(C)c(C(=O)Nc2cccc3c2C(=O)NC3=O)cc1C(=O)Nc1cccc2c1C(=O)NC2=O
Output: False

Input: Outcome? CC1=C(C(N)=O)C(c2ccncc2)C(C#N)C(=O)N1 (stereo not drawn)
Output: False

Input: Please state the recorded outcome for this compound: CC(=O)ON(C(C)=O)c1ccc(-c2nc3ccccc3s2)cc1C
Output: False

Input: What is the recorded call for this compound in the test? CCCCCCCCCCCCCCCC(=O)OCC(COP(=O)(O)OCCNC(=O)CCSSc1ccccn1)OC(=O)CCCCCCCCCCCCCCC (stereo not drawn)
Output: False

Input: Short answer needed: outcome of this test for COc1ccc(-n2c(C)nc3ccc(NC4OC(CO)C(O)C(O)C4O)cc3c2=O)cc1 (stereo not drawn) ?
Output: False

Input: Outcome logged for S=c1sc2c(S)nc(S)nc2n1-c1ccccc1 in this assay:
Output: False

Input: Tell me the recorded outcome of this test for O=C(O)\C=C/C=C/C=C/C=C/C(=O)O .
Output: False

Input: Which result was noted for this compound in the test: COc1ccccc1NC(=S)N/N=C/c1c(C)n(C)n(-c2ccccc2)c1=O
Output: False

Input: Hello, I am checking results. What call was entered for CO/C(=N/N1CC1C(F)(F)F)c1ccncc1 (stereo not drawn) ?
Output: False

Input: Please share the test call associated with Cc1ccc(NC(=O)CC(=O)N2N=C(N3CCCCC3)CC2c2ccccc2)cc1 (stereo not drawn) .
Output: False

Input: Check the results log: what was the call for CCOC(=O)NC(Nc1ccc(S(=O)(=O)Nc2ncccn2)cc1)(C(=O)OCC)C(F)(F)F (stereo not drawn) ?
Output: False

Input: Could you check what this test reported for O=C(Nc1ccc(Cl)cc1)NS(=O)(=O)c1c(-c2ccccc2)oc2ccccc2c1=O ?
Output: False

Input: For CC(=O)Nc1ccc(-c2nc3ccccc3s2)cc1Cl , which call appears in the assay record?
Output: False
